Test system: RXRa DBDmut IVT, anti-RXR (DBD mutation: RXRa K156A/R161A, NR concentration 90 nM)
Assay: PBM binding z-score (relative to random genomic background probes); higher = stronger binding; sequences stand for … in GC…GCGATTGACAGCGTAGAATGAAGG
Reported values of PBM binding z-score for individual entries
Answer field: number only, no words.

Some solved cases for reference:
**Query** Output reported PBM binding z-score of the sequence `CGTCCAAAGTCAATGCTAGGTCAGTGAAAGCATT` on RXRa DBDmut IVT, anti-RXR (DBD mutation: RXRa K156A/R161A, NR concentration 90 nM).
**Result** 0.43

**Query** Fill: PBM binding z-score (RXRa DBDmut IVT, anti-RXR (DBD mutation: RXRa K156A/R161A, NR concentration 90 nM)) for this sequence `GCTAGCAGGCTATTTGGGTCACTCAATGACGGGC`
**Result** -0.21

New cases:
**Query** Find PBM binding z-score for `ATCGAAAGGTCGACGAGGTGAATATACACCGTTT` on RXRa DBDmut IVT, anti-RXR (DBD mutation: RXRa K156A/R161A, NR concentration 90 nM) and write it down.
**Result** 1.7

---

Test system: THRa homodimer (NR concentration 90 nM)
Test: PBM binding z-score (relative to random genomic background probes); higher = stronger binding; sequences stand for … in GC…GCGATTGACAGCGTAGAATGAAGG
// PBM binding z-score lookup, one value per entry

Worked examples, 5 sequences total:
**Query** Annotate the sequence `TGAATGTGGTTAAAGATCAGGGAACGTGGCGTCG` with its measured PBM binding z-score.
**Result** -0.0512

**Query** Return reported PBM binding z-score. Input sequence: `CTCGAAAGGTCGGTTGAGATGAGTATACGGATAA`
**Result** -0.23

**Query** Supply PBM binding z-score value. Item: `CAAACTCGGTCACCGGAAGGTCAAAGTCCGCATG`
**Result** 1.59

**Query** Recall and state the measured PBM binding z-score for `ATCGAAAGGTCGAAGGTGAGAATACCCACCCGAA` .
**Result** -0.0436

**Query** Look up PBM binding z-score of `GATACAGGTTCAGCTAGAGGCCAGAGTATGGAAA` and report it.
**Result** -0.412

New cases:
**Query** Tell me its PBM binding z-score given `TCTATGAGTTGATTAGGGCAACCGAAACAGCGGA` as the entry.
**Result** -0.131

**Query** Return value of PBM binding z-score for input `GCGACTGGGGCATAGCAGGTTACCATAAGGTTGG` , no commentary.
**Result** -0.122

**Query** Write down PBM binding z-score measured for item `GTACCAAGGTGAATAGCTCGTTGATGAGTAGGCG`
**Result** 0.236

---

Tested on: PPARg:RXRa IVT, anti-PPARg (NR concentration 270 nM, RXRa partner concentration 90 nM)
Test: PBM binding z-score (relative to random genomic background probes); higher = stronger binding; sequences stand for … in GC…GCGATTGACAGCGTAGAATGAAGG
Metric: PBM binding z-score
The reply should be a number, written without any unit.

**Query** Determine from records and report PBM binding z-score for `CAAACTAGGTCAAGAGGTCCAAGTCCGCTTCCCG`
**Result** 8.32

**Query** Item `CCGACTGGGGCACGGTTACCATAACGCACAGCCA` : provide PBM binding z-score
**Result** 4.42

**Query** Give a short answer stating reported PBM binding z-score for `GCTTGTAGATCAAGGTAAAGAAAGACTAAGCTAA` .
**Result** 0.644

**Query** Answer with the recorded PBM binding z-score of `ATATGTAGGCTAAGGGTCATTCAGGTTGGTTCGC` only.
**Result** 6.21

---

System: PPARg:RXRa IVT, anti-PPARg (NR concentration 270 nM, RXRa partner concentration 90 nM)
Test: PBM binding z-score (relative to random genomic background probes); higher = stronger binding; sequences stand for … in GC…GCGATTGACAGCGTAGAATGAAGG
Metric: PBM binding z-score

Some sequences with recorded PBM binding z-score:
**Query** Input `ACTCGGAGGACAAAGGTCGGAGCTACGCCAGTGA` , output reported PBM binding z-score.
**Result** 1.75

**Query** For `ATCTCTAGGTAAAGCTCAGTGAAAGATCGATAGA` , write its PBM binding z-score.
**Result** 1.38

**Query** Kindly indicate its recorded PBM binding z-score. Item: `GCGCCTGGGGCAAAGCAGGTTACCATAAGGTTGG`
**Result** -0.0318

# context switch: different sequence, same PBM binding z-score
**Query** Consider the sequence `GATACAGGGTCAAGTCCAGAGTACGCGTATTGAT` and give its recorded PBM binding z-score.
**Result** 4.1

---

Tested on: LXRb homodimer (NR concentration 270 nM)
Assay: PBM binding z-score (relative to random genomic background probes); higher = stronger binding; sequences stand for … in GC…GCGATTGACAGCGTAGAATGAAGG
Metric: PBM binding z-score
Output spec: single numeric token, no unit.

In the examples that follow, each entry is paired with its recorded PBM binding z-score.
**Query** Supply PBM binding z-score value. Item: `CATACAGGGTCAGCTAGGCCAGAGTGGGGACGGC`
**Result** 0.724

**Query** Supply measured PBM binding z-score of `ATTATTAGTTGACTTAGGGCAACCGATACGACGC` in your reply.
**Result** 1.32

**Query** Read the entry `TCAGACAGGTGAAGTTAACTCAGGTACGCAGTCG` and write its reported PBM binding z-score.
**Result** -0.0783

**Query** Please indicate PBM binding z-score recorded for `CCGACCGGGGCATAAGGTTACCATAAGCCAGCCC`
**Result** -1.04

**Query** Dear colleague, please send me the reported PBM binding z-score for `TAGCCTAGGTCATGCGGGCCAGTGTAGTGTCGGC` when you can.
**Result** -0.348

Next:
**Query** Hello, please tell me recorded PBM binding z-score for this one: `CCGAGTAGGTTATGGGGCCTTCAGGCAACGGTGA`
**Result** -0.362

**Query** Give PBM binding z-score for the following sequence: `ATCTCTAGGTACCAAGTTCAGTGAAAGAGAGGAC`
**Result** 0.845

---

System: RXRa DBDmut IVT, anti-RXR (DBD mutation: RXRa K156A/R161A, NR concentration 90 nM)
Experiment: PBM binding z-score (relative to random genomic background probes); higher = stronger binding; sequences stand for … in GC…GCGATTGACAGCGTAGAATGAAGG
Metric: PBM binding z-score
Output spec: single numeric token, no unit.

Take a look at these entries with their results.
**Query** Note down PBM binding z-score recorded for `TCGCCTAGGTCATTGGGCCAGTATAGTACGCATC`
**Result** 2.13

**Query** Respond only with PBM binding z-score recorded for `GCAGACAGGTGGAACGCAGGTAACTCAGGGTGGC`
**Result** -0.849

Further cases:
**Query** Query PBM binding z-score for `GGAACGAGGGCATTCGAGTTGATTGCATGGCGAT`
**Result** 3.28

**Query** Using known records, supply PBM binding z-score for `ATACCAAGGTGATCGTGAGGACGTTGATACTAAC`
**Result** -0.27

**Query** Respond only with PBM binding z-score recorded for `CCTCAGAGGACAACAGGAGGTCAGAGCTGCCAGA`
**Result** 1.36

**Query** Identify measured PBM binding z-score associated with `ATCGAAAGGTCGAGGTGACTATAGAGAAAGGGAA`
**Result** 1.37

**Query** Consider the sequence `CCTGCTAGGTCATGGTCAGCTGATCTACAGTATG` and give its recorded PBM binding z-score.
**Result** 1.96

**Query** Output PBM binding z-score of `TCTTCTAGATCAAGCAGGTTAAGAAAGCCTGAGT`
**Result** 0.841

**Query** Tell me its PBM binding z-score given `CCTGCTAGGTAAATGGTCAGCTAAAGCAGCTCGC` as the entry.
**Result** -0.0563

---

System: PPARg:RXRa 30nM:10nM, anti-RXR (NR concentration 30 nM, RXRa partner concentration 10 nM)
Assay: PBM binding z-score (relative to random genomic background probes); higher = stronger binding; sequences stand for … in GC…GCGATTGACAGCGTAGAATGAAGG
Output rule met for PBM binding z-score not less than 2; output rule not met otherwise.

Check out these entries, answers already filled in.
**Query** Entry `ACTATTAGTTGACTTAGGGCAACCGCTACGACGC` : is its PBM binding z-score no less than 2?
**Result** rule not met

**Query** Textbook exercise: given the entry `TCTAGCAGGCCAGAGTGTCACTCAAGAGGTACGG` , state whether its PBM binding z-score is greater than or equal to 2.
**Result** rule not met

**Query** Quick check: does `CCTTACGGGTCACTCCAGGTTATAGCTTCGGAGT` have PBM binding z-score greater than or equal to 2?
**Result** rule not met

**Query** Hello, I need to know if `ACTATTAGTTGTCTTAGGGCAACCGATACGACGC` has measured PBM binding z-score not below 2. Thanks!
**Result** rule not met

Here is another sequence to look at.
**Query** Reported PBM binding z-score reaches at least 2 for `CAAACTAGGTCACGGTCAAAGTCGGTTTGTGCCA` ?
**Result** rule met
